Hello, the source for this data is patent US9162993B2, in case you need it.

Test system: RANKL-induced osteoclast differentiation in RAW 264.7 cells
Experiment: TRAP staining, RANKL-induced osteoclast differentiation (TRAP+ multinucleated cells)
Assay type: cell-based, murine
Conditions: Mus musculus, RAW264.7; RAW 264.7 cells, RANKL (100 ng/mL), compounds at 5 μM, TRAP-positive multinucleated cells; read-out: Inhibition of MNCs (%)
quantity-name: inhibition at 5 µM (%)

- compound: "O=c1oc2ccc(-c3ccc(F)cc3F)cc2c(=O)n1-c1cccc(C(F)(F)F)c1 [compound 18]"
  quantity-name: "inhibition at 5 µM"
  number: 62.9
- compound: "O=C(O)c1cc(-c2ccc(F)cc2F)ccc1O [Diflunisal, reference compound]"
  quantity-name: "inhibition at 5 µM"
  number: 23.9
- compound: "O=C(Nc1cc(F)ccc1F)c1cc(-c2ccc(F)cc2F)ccc1O [compound 4]"
  quantity-name: "inhibition at 5 µM"
  number: 67.3
- compound: "O=C(Nc1ccc(F)c(F)c1)c1cc(-c2ccc(F)cc2F)ccc1O [compound 3]"
  quantity-name: "inhibition at 5 µM"
  number: 47.4
- compound: "COc1cccc(-n2c(=O)oc3ccc(-c4ccc(F)cc4F)cc3c2=O)c1 [compound 24]"
  quantity-name: "inhibition at 5 µM"
  number: 30.8
- compound: "C#Cc1cccc(NC(=O)c2cc(-c3ccc(F)cc3F)ccc2O)c1 [compound 8]"
  quantity-name: "inhibition at 5 µM"
  number: 40.6
- compound: "COc1cccc(NC(=O)c2cc(-c3ccc(F)cc3F)ccc2O)c1 [compound 12]"
  quantity-name: "inhibition at 5 µM"
  number: 40.8
- compound: "O=c1oc2ccc(-c3ccc(F)cc3F)cc2c(=O)n1-c1ccc(F)c(F)c1 [compound 15]"
  quantity-name: "inhibition at 5 µM"
  number: 17.4
- compound: "O=C(Nc1ccccc1C(F)(F)F)c1cc(-c2ccc(F)cc2F)ccc1O [compound 5]"
  quantity-name: "inhibition at 5 µM"
  number: 42.8
- compound: "O=C(Nc1cccc(C(F)(F)F)c1)c1cc(-c2ccc(F)cc2F)ccc1O [compound 6]"
  quantity-name: "inhibition at 5 µM"
  number: 59.2
- compound: "COc1ccc(NC(=O)c2cc(-c3ccc(F)cc3F)ccc2O)cc1OC [compound 11]"
  quantity-name: "inhibition at 5 µM"
  number: 51.9
- compound: "O=c1oc2ccc(-c3ccc(F)cc3F)cc2c(=O)n1-c1ccccc1C(F)(F)F [compound 17]"
  quantity-name: "inhibition at 5 µM"
  number: 31.6
- compound: "COc1ccc(-n2c(=O)oc3ccc(-c4ccc(F)cc4F)cc3c2=O)cc1OC [compound 23]"
  quantity-name: "inhibition at 5 µM"
  number: 21.2
- compound: "O=C(Nc1ccc(C(F)(F)F)cc1)c1cc(-c2ccc(F)cc2F)ccc1O [compound 7]"
  quantity-name: "inhibition at 5 µM"
  number: 51.5
- compound: "O=C(Nc1ccc(Cl)cc1F)c1cc(-c2ccc(F)cc2F)ccc1O [compound 1]"
  quantity-name: "inhibition at 5 µM"
  number: 44.3
- compound: "O=c1oc2ccc(-c3ccc(F)cc3F)cc2c(=O)n1-c1cc(F)ccc1F [compound 16]"
  quantity-name: "inhibition at 5 µM"
  number: 86.8

---

Here, each record is paired with measured Cell viability (%) data.
Tested on: RAW 264.7 cells
Experiment: MTT assay, RAW264.7 cell viability
Format: cell-based
Conditions: MTT assay, compounds at 5 μM
Protocol: The compounds 1 to 24 of the present invention is tested by three pharmacological activity tests as follows: (1) MTT assay to test the RAW264.7 cell (murine monocyte/macrophage cell line) viability; (2) Tartrate-resistant acid phosphatase (TRAP) staining and activity analysis to investigate the cell differentiation activity; (3) The activity test of bone resorption (Pit formation assay). […]
quantity-name: Cell viability (%)

- compound: "O=C(Nc1ccccc1C(F)(F)F)c1cc(-c2ccc(F)cc2F)ccc1O [compound 5]"
  target-of-assay: "RAW 264.7 cells"
  quantity-name: "Cell viability (%)"
  value-units: "%"
  number: 99.37
- compound: "COc1ccc(NC(=O)c2cc(-c3ccc(F)cc3F)ccc2O)cc1OC [compound 11]"
  target-of-assay: "RAW 264.7 cells"
  quantity-name: "Cell viability (%)"
  value-units: "%"
  number: 98.87
- compound: "N#Cc1ccc(-n2c(=O)oc3ccc(-c4ccc(F)cc4F)cc3c2=O)cc1 [compound 22]"
  target-of-assay: "RAW 264.7 cells"
  quantity-name: "Cell viability (%)"
  value-units: "%"
  number: 108.33
- compound: "N#Cc1cccc(-n2c(=O)oc3ccc(-c4ccc(F)cc4F)cc3c2=O)c1 [compound 21]"
  target-of-assay: "RAW 264.7 cells"
  quantity-name: "Cell viability (%)"
  value-units: "%"
  number: 102.79
- compound: "O=C(Nc1cccc(C(F)(F)F)c1)c1cc(-c2ccc(F)cc2F)ccc1O [compound 6]"
  target-of-assay: "RAW 264.7 cells"
  quantity-name: "Cell viability (%)"
  value-units: "%"
  number: 96.73
- compound: "O=c1oc2ccc(-c3ccc(F)cc3F)cc2c(=O)n1-c1ccc(F)cc1F [compound 14]"
  target-of-assay: "RAW 264.7 cells"
  quantity-name: "Cell viability (%)"
  value-units: "%"
  number: 96.49
- compound: "COc1cccc(NC(=O)c2cc(-c3ccc(F)cc3F)ccc2O)c1 [compound 12]"
  target-of-assay: "RAW 264.7 cells"
  quantity-name: "Cell viability (%)"
  value-units: "%"
  number: 104.90
- compound: "O=c1oc2ccc(-c3ccc(F)cc3F)cc2c(=O)n1-c1ccc(Cl)cc1F [compound 13]"
  target-of-assay: "RAW 264.7 cells"
  quantity-name: "Cell viability (%)"
  value-units: "%"
  number: 96.22
- compound: "O=C(O)c1cc(-c2ccc(F)cc2F)ccc1O [Diflunisal, reference compound]"
  target-of-assay: "RAW 264.7 cells"
  quantity-name: "Cell viability (%)"
  value-units: "%"
  number: 103.82
